Tested on: C. elegans
Conditions: Table S2, C. elegans SS assay, 110 μM, 0 h, averages of 4 data points
PARAMETER_MEASURED: Percentage of motility inhibition 0 h (%)
Give bare numbers, in %.

Recorded results for 3 molecules are shown here.
MOLECULE | UNIT_NAME | RECORDED_RESULT
C[C@@H]1O[C@@H](O[C@H]2[C@H](O[C@H]3[C@H](O[C@H]4CC[C@]5(C)[C@H]6CC=C7[C@@H]8CC(C)(C)CC[C@]8(C(=O)O[C@@H]8O[C@H](CO[C@@H]9O[C@H](CO)[C@@H](O[C@@H]%10O[C@@H](C)[C@H](O)[C@@H](O)[C@H]%10O)[C@H](O)[C@H]9O)[C@@H](O)[C@H](O)[C@H]8O)CC[C@@]7(C)[C@]6(C)CC[C@H]5C4(C)C)OC[C@H](O)[C@@H]3O)O[C@H](CO)[C@@H](O)[C@@H]2O)[C@H](O)[C@H](O)[C@H]1O [Raddeanoside R8] | % | 3
COc1ccc2c3ccnc4ccc(=O)n(c2c1)c43 [9‐Methoxycanthin‐6‐one] | % | 0
CC(C)=CCC[C@@](C)(O)[C@H]1CC[C@]2(C)[C@@H]1[C@H](O)C[C@@H]1[C@@]3(C)CC[C@H](O)C(C)(C)[C@@H]3[C@@H](O)C[C@]12C [20(R)-Protopanaxatriol] | % | 0

List reported Percentage of motility inhibition 0 h for each of these molecules:
1. C/C(=C\CNc1ncnc2c1ncn2[C@@H]1O[C@H](CO)[C@@H](O)[C@H]1O)CO [trans‐Zeatinriboside]
2. COc1ccc2c(c[n+](C)c3c4cc5c(cc4ccc23)OCO5)c1OC.[Cl-] [Chelerythrine (chloride)]
3. COCc1c(CO)cnc(C)c1O [4'‐O‐Methylpyridoxine]
4. CN[C@H]1[C@H](O)[C@H](O[C@@H]2[C@@H](O)[C@H](O[C@H]3O[C@H](C(C)O)[C@@H](O)[C@H](O)[C@H]3N)[C@@H](N)C[C@H]2N)OC[C@@]1(C)O.O=S(=O)(O)O.O=S(=O)(O)O (stereo partly shown) [G‐418 (disulfate)]
5. COC(=O)[C@@H]1[C@H]2C[C@H]3c4[nH]c5ccccc5c4CCN3C[C@@H]2CC[C@@H]1O.Cl [Yohimbine (Hydrochloride)]
6. C[C@@H](CO)[C@@H]1CC[C@@]2(CC[C@]3(C)[C@H](CC[C@@H]4[C@@]5(C)CC[C@H](O[C@@H]6O[C@H](CO)[C@@H](O)[C@H](O)[C@H]6O[C@@H]6O[C@H](CO)[C@@H](O)[C@H](O)[C@H]6O)[C@@](C)(CO[C@@H]6O[C@H](CO)[C@@H](O)[C@H](O)[C@H]6O)[C@@H]5CC[C@]43C)[C@H]2O)CO1 [Hosenkoside A]
7. CN1CC(=O)NC1=O [N‐Methylhydantoin]

Reply text:
9
17
26
26
24
15
13

----------
Tested on: C. elegans
Test: microbe, parasite or virus in culture
Details: Caenorhabditis elegans, 24 h, read-out: Percentage of motility inhibition 24 h, Table S2, C. elegans SS assay, 110 μM, 24 h, averages of 4 data points
PARAMETER_MEASURED: inhibition at 110 µM

Worked examples, 2 molecules total:
MOLECULE | inhibition at 110 µM
C=C1C(=O)O[C@@H]2C[C@@]3(C)CCCC(=C)[C@@H]3C[C@H]12 [Isoalantolactone] | 12%
CN1CC[C@]23C(=O)C[C@H]4C(=CCO[C@H]5CC(=O)N(c6c(O)cccc62)[C@H]3[C@H]54)C1 [Vomicine] | 0%

Please go through the list and note inhibition at 110 µM for each molecule.
1. C/C=C(/C)C(=O)O[C@H]1C(C)=C[C@]23C(=O)[C@@H](C=C(CO)[C@@H](O)[C@]12O)[C@H]1[C@@H](C[C@H]3C)C1(C)C [Ingenol Mebutate]
2. Nc1nc(N)c(O[C@@H]2O[C@H](CO)[C@@H](O)[C@H](O)[C@H]2O)c(=O)[nH]1 [Vicine]

Reply text:
0%
0%

Provide the reported inhibition at 110 µM of each entry below, same order.
1. CC[C@@H]1/C=C(\C)C[C@H](C)C[C@H](OC)[C@H]2O[C@@](O)(C(=O)C(=O)N3CCCC[C@H]3C(=O)O[C@H](/C(C)=C/[C@@H]3CC[C@@H](O)[C@H](OC)C3)[C@H](C)[C@@H](O)CC1=O)[C@H](C)C[C@@H]2OC [Ascomycin]
2. C=C1[C@@H](O)[C@]2(O)OC[C@]34[C@H]2[C@@]2(C)[C@H](O)C(=O)C=C(C)[C@@H]2C[C@H]3OC(=O)[C@H](O)[C@@]14O [Eurycomanone]

Reply text:
["0%", "4%"]
